B1: Intersectin-2, residues 1129 to 1183; numbered along this chain, Q9NZM3 (parent)
chain: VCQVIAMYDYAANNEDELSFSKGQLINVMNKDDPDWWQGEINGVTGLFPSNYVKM

- Variants of: B1
- EXPERIMENTAL_DETAILS: abundance fitness (aPCA) (normalised: wild type 0, dead -1); higher = more abundant; growth selection in yeast, the domain comes from the species named
- PARTICULARS: Homo sapiens
Measured abundance fitness, listed per entry.

# CHAIN_SEQUENCE, abundance fitness
measured = [
    ("VCQVIAMYDYAANNEDALSFSKGQLINVMNKDDPDWWQGEINGVTGLFPSNYVKM [E17A]", -0.174),
    ("VCQVIAMYLYAANNEDELSFSKGQLINVMNKDDPDWWQGEINGVTGLFPSNYVKM [D9L]", -0.571),
    ("VCQVIAMYDYAANNRDELSFSKGQLINVMNKDDPDWWQGEINGVTGLFPSNYVKM [E15R]", -0.037),
    ("VCQVIAMYDYAANNEDELSFSKGQLINVMNKCDPDWWQGEINGVTGLFPSNYVKM [D32C]", -0.089),
    ("VCQVIAMYDYAANNEDELPFSKGQLINVMNKDDPDWWQGEINGVTGLFPSNYVKM [S19P]", -0.166),
    ("VCQVIAMEDYAANNEDELSFSKGQLINVMNKDDPDWWQGEINGVTGLFPSNYVKM [Y8E]", -0.002),
    ("VCQVIAMYDYAANNEDELSFSKGQLINVMNKDDPDWWQGEINGVTGLFPSNYVQM [K54Q]", -0.049),
    ("VCQVIAMYDYAANNEDELSFSKGQLINEMNKDDPDWWQGEINGVTGLFPSNYVKM [V28E]", -0.996),
    ("VCQVIAMYDYAANNEDELSFSEGQLINVMNKDDPDWWQGEINGVTGLFPSNYVKM [K22E]", -0.036),
    ("VCQVIAMYDYAANNEDELSFSKGQLINVMNKDDPDWWQGENNGVTGLFPSNYVKM [I41N]", -0.159),
    ("VCQVIAMYDYAANNEDELSFSMGQLINVMNKDDPDWWQGEINGVTGLFPSNYVKM [K22M]", -0.118),
    ("VCQVIAMYDYAANNEDELSFSKGQLINVMNKDDPDWWQCEINGVTGLFPSNYVKM [G39C]", -0.995),
    ("VCQVISMYDYAANNEDELSFSKGQLINVMNKDDPDWWQGEINGVTGLFPSNYVKM [A6S]", -0.057),
    ("VCQVIAMYDYAANNEDELSFSKGQLINVMNKDDPDWWQGEINGMTGLFPSNYVKM [V44M]", -0.169),
    ("VCQVIAMYDYAANNIDELSFSKGQLINVMNKDDPDWWQGEINGVTGLFPSNYVKM [E15I]", -0.076),
    ("VCQVIAPYDYAANNEDELSFSKGQLINVMNKDDPDWWQGEINGVTGLFPSNYVKM [M7P]", -0.897),
    ("VCQVIAMYDYAANNEDELSFSKGQLINVMNKDDPDWWQGEINGVTMLFPSNYVKM [G46M]", -1.06),
    ("VCQVIAMYDYAANNEDELSFSKGQLINVMNKDNPDWWQGEINGVTGLFPSNYVKM [D33N]", -0.034),
    ("VCQVIAMYDYAANNEDELSFSKGQLIHVMNKDDPDWWQGEINGVTGLFPSNYVKM [N27H]", -0.089),
    ("VCQVIAMYDYAANNEDELSFSKGQLINVMNKDDPDWWQGEINGVTGLFPSWYVKM [N51W]", -0.121),
    ("VCQVIAMYDYAANNEDELSFSKGQLINVMNKDDPDWWQGEINGVTGLFPANYVKM [S50A]", -0.046),
    ("VCQVIAMYDYAANNESELSFSKGQLINVMNKDDPDWWQGEINGVTGLFPSNYVKM [D16S]", -0.004),
    ("VCQVIAMYDYAANNEDELSFSKGQLINVMNKDDPDWWFGEINGVTGLFPSNYVKM [Q38F]", -0.059),
    ("VCQVIAMYDYAANNEDELSFSKGQLINVMNKDDPDWWQGEINGVTGLFFSNYVKM [P49F]", -0.358),
    ("VCQVIAMYDYAANNEDELSFSKGQLINVMNKNDPDWWQGEINGVTGLFPSNYVKM [D32N]", 0.021),
    ("VCQVIAMYDYAANNEDELSFSKGQLIFVMNKDDPDWWQGEINGVTGLFPSNYVKM [N27F]", -0.112),
    ("VCQVIAMYDYAANNEDCLSFSKGQLINVMNKDDPDWWQGEINGVTGLFPSNYVKM [E17C]", -0.105),
    ("VCQVIAMYDYAANNEDELSFSKGQLINVMVKDDPDWWQGEINGVTGLFPSNYVKM [N30V]", -0.045),
    ("VCQVIAMYDYAANNEDELSFSKGQLINVMNKDDPDWWQGEINGVTGLFPSNYTKM [V53T]", 0.03),
    ("VCQVIAMYDYAANNEDELSFSKGQLINVMNKDDPDWWQGETNGVTGLFPSNYVKM [I41T]", -0.017),
    ("VCQVIAMYDYAANNEDELSFSKGQLINYMNKDDPDWWQGEINGVTGLFPSNYVKM [V28Y]", -0.87),
    ("VCQVIAMYDYAANNEDELSFSKGQLINVMNKDDPDWWQGEINGVCGLFPSNYVKM [T45C]", -0.087),
    ("VCQVIAMYDYAANNEDELSFSKGQLINVMNKDDPDWWQGRINGVTGLFPSNYVKM [E40R]", -0.059),
    ("VCQVIAMYDYAANNEDELSFSKGQLINVMNKDDPDWWQDEINGVTGLFPSNYVKM [G39D]", -0.726),
    ("VCQVIAMYDYAANNEDELSFSKGQLINVMNKDDPDMWQGEINGVTGLFPSNYVKM [W36M]", 0.002),
    ("TCQVIAMYDYAANNEDELSFSKGQLINVMNKDDPDWWQGEINGVTGLFPSNYVKM [V1T]", 0.107),
    ("VCQVIAMYDYAANNEDELSFSKGQLINVMNKDDPDWWQGEINGVTGLFPSNEVKM [Y52E]", -0.192),
    ("VCQLIAMYDYAANNEDELSFSKGQLINVMNKDDPDWWQGEINGVTGLFPSNYVKM [V4L]", -0.297),
    ("VCQVIAMYDYAANNEDELSFSKGQLINVMNKDDPDWDQGEINGVTGLFPSNYVKM [W37D]", -0.865),
    ("VCQVIAMYDYAANYEDELSFSKGQLINVMNKDDPDWWQGEINGVTGLFPSNYVKM [N14Y]", -0.048),
    ("VCQVIAMYDYAANNEDNLSFSKGQLINVMNKDDPDWWQGEINGVTGLFPSNYVKM [E17N]", -0.271),
    ("VCQVIAMYDYAANNEDELSFSKGQLINVMNHDDPDWWQGEINGVTGLFPSNYVKM [K31H]", -0.148),
    ("VCQVIAMYDYAANNEDELSFSKGQLINVMNKDDPDWWQGEIQGVTGLFPSNYVKM [N42Q]", -0.084),
    ("VCQVIAMYDYAANNEDELSFSKGQLINVMNDDDPDWWQGEINGVTGLFPSNYVKM [K31D]", -0.044),
    ("VCQVIAMYDYAANNEDELSFDKGQLINVMNKDDPDWWQGEINGVTGLFPSNYVKM [S21D]", -0.021),
    ("VCQVIAMYDYAANNEDELSISKGQLINVMNKDDPDWWQGEINGVTGLFPSNYVKM [F20I]", -0.163),
    ("VCQVIAMYDYAANNEDELSFSHGQLINVMNKDDPDWWQGEINGVTGLFPSNYVKM [K22H]", -0.146),
    ("VCQVIAMYDYAANNEDELSFSKGQLINVMNKDDPDDWQGEINGVTGLFPSNYVKM [W36D]", -0.323),
    ("VCQVIAMYDYAANNEDHLSFSKGQLINVMNKDDPDWWQGEINGVTGLFPSNYVKM [E17H]", 0.048),
    ("VCQVIAMYDYATNNEDELSFSKGQLINVMNKDDPDWWQGEINGVTGLFPSNYVKM [A12T]", -0.038),
    ("VCQVIHMYDYAANNEDELSFSKGQLINVMNKDDPDWWQGEINGVTGLFPSNYVKM [A6H]", -0.923),
    ("VCQVIAMYDYAANNEDELEFSKGQLINVMNKDDPDWWQGEINGVTGLFPSNYVKM [S19E]", -0.193),
    ("VCQVIAMYDYAANNEDELSFGKGQLINVMNKDDPDWWQGEINGVTGLFPSNYVKM [S21G]", -0.039),
    ("VCQVIAMYDYAANNEDELSFSKGQLINVMNKDDQDWWQGEINGVTGLFPSNYVKM [P34Q]", 0.029),
    ("VCQVIAMYDYAANNEDELSKSKGQLINVMNKDDPDWWQGEINGVTGLFPSNYVKM [F20K]", -0.921),
    ("VCQVIAMYDYAANNEDELSFSKGQLINVMNKDDPDWWQGEINGVTGLFPSAYVKM [N51A]", -0.075),
    ("VCQVIAMYDYAANNEDELSFSKGQLINVMNKDDPDWPQGEINGVTGLFPSNYVKM [W37P]", -0.582),
    ("VCQVIAMDDYAANNEDELSFSKGQLINVMNKDDPDWWQGEINGVTGLFPSNYVKM [Y8D]", -0.197),
    ("VCQVIAMYDYAANNEDELSFSKGQLINVMNKDDPDWWQGEINGVTGLFPSNYIKM [V53I]", 0.065),
    ("VCQVIAMYDYAANNYDELSFSKGQLINVMNKDDPDWWQGEINGVTGLFPSNYVKM [E15Y]", -0.002),
    ("VCQVIAMYDYAANNEDELSFSKGQLINVMNKDDPCWWQGEINGVTGLFPSNYVKM [D35C]", -0.167),
    ("VCQVIAMYDYAANNEDELSFSKGQLINVMNKDDPDWWQGEINGVTGLFPSNYVKL [M55L]", -0.095),
    ("VCQVIAMYDYAANNEDELSFSKGQLINVMNKDDPDWWRGEINGVTGLFPSNYVKM [Q38R]", -0.029),
    ("VCQVIAMYDYAANNEDELSFSKGQLINVMNKDDPDWWQGEINGVTGLFPSNPVKM [Y52P]", -0.544),
    ("VCYVIAMYDYAANNEDELSFSKGQLINVMNKDDPDWWQGEINGVTGLFPSNYVKM [Q3Y]", -0.029),
    ("VCQVIAMYVYAANNEDELSFSKGQLINVMNKDDPDWWQGEINGVTGLFPSNYVKM [D9V]", -0.38),
    ("VCQVIAMYDMAANNEDELSFSKGQLINVMNKDDPDWWQGEINGVTGLFPSNYVKM [Y10M]", -0.256),
    ("VCQVIAMYDYAANNEDELSFLKGQLINVMNKDDPDWWQGEINGVTGLFPSNYVKM [S21L]", -0.037),
    ("VCQVIAMYDYAANNEDELSFSKGQLINVMNKDDPDWWQGEINGVTGLTPSNYVKM [F48T]", -0.85),
    ("VCQVIAMYDYAANNEDELSFSKGQLINVMNKDDPDWWQGEINGVMGLFPSNYVKM [T45M]", -0.145),
    ("VCQVIAMYDYAANNEDELSFSKGQLINVMNKDDPDWKQGEINGVTGLFPSNYVKM [W37K]", -1.03),
    ("VCQVIAMYDYAACNEDELSFSKGQLINVMNKDDPDWWQGEINGVTGLFPSNYVKM [N13C]", -0.047),
    ("VCQVIAMYDYAANNMDELSFSKGQLINVMNKDDPDWWQGEINGVTGLFPSNYVKM [E15M]", -0.083),
    ("VCQVIAMYDYAANNEDELSFSKGQLINVMNKDDPDWWQGEINGVTGLFQSNYVKM [P49Q]", -0.129),
    ("VCQVIAMYDYAANNEDELSFSKGQLINVMNKDDPDCWQGEINGVTGLFPSNYVKM [W36C]", -0.003),
    ("VCSVIAMYDYAANNEDELSFSKGQLINVMNKDDPDWWQGEINGVTGLFPSNYVKM [Q3S]", 0.012),
]

Where do these numbers come from? They come from the Human Domainome abundance scans (Beltran et al. 2025).
